assayedSystem: human Sirt2 (Homo sapiens)
Construct: made in house; host or cells: E. coli BL21 Star (DE3)
Sequence (Q8IXJ6 56-356): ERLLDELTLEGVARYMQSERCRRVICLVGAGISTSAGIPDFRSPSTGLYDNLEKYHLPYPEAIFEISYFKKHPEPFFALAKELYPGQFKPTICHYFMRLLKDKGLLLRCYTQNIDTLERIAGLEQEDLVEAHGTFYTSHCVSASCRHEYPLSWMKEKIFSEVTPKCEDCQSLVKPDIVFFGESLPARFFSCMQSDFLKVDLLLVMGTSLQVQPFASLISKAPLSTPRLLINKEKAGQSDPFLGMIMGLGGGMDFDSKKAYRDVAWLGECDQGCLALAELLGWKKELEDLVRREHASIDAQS
assayProcedure: Homogeneous ZMAL-based fluorescence assay, Sirt2
Assay type: biochemical
conditionInfo: 4th round
Quick reference for inhibition at 50 µM among some molecules

[in] Under human Sirt2 (Homo sapiens): inhibition at 50 µM value of COc1ccc(SC#N)cc1OCC(=O)N(CCC#N)CCC#N ?
[out] < 10%

###

System: HeLa cells
assayProcedure: Colony forming assay with HeLa cells
Assay type: cell-based, human
conditionInfo: 7–10 days; concentrations as in proliferation assay
attributeMeasured: colony forming of HeLa cells

N#CSc1cccc(NC(=O)[C@H]2CC=CC[C@H]2C(=O)O)c1 [S1th 10] : only mild effects
COc1ccc(SC#N)cc1OCC(=O)N(CCC#N)CCC#N [S1th 12] : only mild effects

###

assayedSystem: HDAC1 (Homo sapiens)
Sequence (Q13547 whole entry, species assumed): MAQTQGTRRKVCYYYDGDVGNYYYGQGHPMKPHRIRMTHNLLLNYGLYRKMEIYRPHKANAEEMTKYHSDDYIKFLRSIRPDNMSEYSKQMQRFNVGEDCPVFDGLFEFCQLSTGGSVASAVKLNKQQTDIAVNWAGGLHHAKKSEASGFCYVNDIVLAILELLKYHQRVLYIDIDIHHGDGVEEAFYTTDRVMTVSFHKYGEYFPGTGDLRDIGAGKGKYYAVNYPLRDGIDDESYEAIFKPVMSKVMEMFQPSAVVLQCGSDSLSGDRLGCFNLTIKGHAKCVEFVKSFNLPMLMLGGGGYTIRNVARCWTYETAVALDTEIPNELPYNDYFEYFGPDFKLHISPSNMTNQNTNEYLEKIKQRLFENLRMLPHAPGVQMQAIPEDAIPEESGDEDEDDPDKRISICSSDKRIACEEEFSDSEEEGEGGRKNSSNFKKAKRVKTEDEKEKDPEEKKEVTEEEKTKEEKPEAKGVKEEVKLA
assayProcedure: Homogeneous ZMAL-based fluorescence assay for HDAC1
Assay type: biochemical
attributeMeasured: inhibition at 100 µM

N#CSc1cc(SC#N)c(N)nc1N [PR-619, reference compound] : 54%
N#CSc1cccc(NC(=O)[C@H]2CC=CC[C@H]2C(=O)O)c1 : < 10%
CCCCNC(=O)Nc1cccc(SC#N)c1 : < 10%

[in] Query: inhibition at 100 µM; subject: N#CSc1cccc(NS(=O)(=O)c2ccc3c(c2)OCCO3)c1
[out] < 10%

[in] Query: inhibition at 100 µM; subject: COc1ccc(SC#N)cc1OCC(=O)N(CCC#N)CCC#N
[out] < 10%

###

System: MCF7 cells
assayProcedure: Cell proliferation assay with MCF7 cells
Format: cell-based, human
conditionInfo: concentrations as for HeLa
attributeMeasured: cell proliferation of MCF7 cells

N#CSc1cccc(NC(=O)[C@H]2CC=CC[C@H]2C(=O)O)c1 : most effective
COc1ccc(SC#N)cc1OCC(=O)N(CCC#N)CCC#N : only have a mild effect
N#CSc1cccc(NS(=O)(=O)c2ccc3c(c2)OCCO3)c1 : most effective
NC(=O)C1CCCc2c1[nH]c1ccc(Cl)cc21 (stereo not shown) [EX-527, reference compound] : only have a mild effect

###

Quick reference for inhibition at 100 µM among some molecules
assayedSystem: UniProt Q9UBN7
Sequence (Q9UBN7 1-1215): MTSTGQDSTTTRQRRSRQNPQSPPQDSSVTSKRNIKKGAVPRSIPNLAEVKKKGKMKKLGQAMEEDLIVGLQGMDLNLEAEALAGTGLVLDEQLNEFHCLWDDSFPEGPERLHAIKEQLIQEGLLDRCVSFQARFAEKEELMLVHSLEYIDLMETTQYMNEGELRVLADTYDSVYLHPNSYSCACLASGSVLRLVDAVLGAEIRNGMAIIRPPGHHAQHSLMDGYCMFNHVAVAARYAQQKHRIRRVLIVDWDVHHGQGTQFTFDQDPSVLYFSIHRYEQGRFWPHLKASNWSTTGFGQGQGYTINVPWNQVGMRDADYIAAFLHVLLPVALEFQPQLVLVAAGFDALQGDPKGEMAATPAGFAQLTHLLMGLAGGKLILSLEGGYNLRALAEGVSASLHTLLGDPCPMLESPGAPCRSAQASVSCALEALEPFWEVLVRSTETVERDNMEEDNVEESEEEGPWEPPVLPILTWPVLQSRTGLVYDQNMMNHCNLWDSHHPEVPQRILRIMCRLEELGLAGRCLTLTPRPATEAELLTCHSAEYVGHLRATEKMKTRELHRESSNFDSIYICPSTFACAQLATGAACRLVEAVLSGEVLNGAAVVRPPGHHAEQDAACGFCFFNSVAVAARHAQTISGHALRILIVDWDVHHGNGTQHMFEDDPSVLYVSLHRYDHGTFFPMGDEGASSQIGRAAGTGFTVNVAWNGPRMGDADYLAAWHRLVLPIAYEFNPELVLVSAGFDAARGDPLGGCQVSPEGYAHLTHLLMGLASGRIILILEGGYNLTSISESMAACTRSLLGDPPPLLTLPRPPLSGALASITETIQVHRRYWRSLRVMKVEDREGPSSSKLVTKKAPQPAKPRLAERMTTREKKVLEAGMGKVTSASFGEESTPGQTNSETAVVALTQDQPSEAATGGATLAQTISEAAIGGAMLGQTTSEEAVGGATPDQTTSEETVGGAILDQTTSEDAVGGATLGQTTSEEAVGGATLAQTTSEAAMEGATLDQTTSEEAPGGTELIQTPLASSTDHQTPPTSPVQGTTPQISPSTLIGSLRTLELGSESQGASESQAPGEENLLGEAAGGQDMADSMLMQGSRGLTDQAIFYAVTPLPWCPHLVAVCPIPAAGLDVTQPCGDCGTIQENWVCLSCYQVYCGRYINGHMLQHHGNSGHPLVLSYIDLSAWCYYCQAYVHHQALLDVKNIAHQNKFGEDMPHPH
assayProcedure: Homogeneous ZMAL-based fluorescence assay for HDAC6
Assay type: biochemical
conditionInfo: 100 μM
Give the value, in units of %, as a plain number.

Sample records with inhibition at 100 µM:
N#CSc1cc(SC#N)c(N)nc1N [PR-619, reference compound] : 49
N#CSc1cccc(NS(=O)(=O)c2ccc3c(c2)OCCO3)c1 : 29
COc1ccc(SC#N)cc1OCC(=O)N(CCC#N)CCC#N : 36

[in] Query: inhibition at 100 µM; subject: N#CSc1cccc(NC(=O)[C@H]2CC=CC[C@H]2C(=O)O)c1
[out] 19

###

assayedSystem: Sirt1 (Homo sapiens, UniProt Q96EB6)
Construct: made in house; host or cells: E. coli BL21 Star (DE3)
assayProcedure: Homogeneous ZMAL-based fluorescence assay, Sirt1
Assay type: biochemical
conditionInfo: 2nd round of in vitro screening
attributeMeasured: IC50 (µM)
Give the value, in units of µM, as a plain number.

[in] Query: IC50; subject: CCCc1cc(=O)[nH]c(SCC(=O)Nc2cccc(SC#N)c2)n1
[out] 13

###

assayedSystem: Sirt1 (Homo sapiens, UniProt Q96EB6)
Construct: made in house; host or cells: E. coli BL21 Star (DE3)
assayProcedure: Homogeneous ZMAL-based fluorescence assay, Sirt1
Type: biochemical
conditionInfo: 4th round
attributeMeasured: pIC50
Schema: pIC50 number; meaning minus log10 of the concentration expressed in molar units.

[in] Query: pIC50; subject: N#CSc1cccc(NC(=O)[C@H]2CC=CC[C@H]2C(=O)O)c1
[out] 4.64

[in] Query: pIC50; subject: N#CSc1cccc(NS(=O)(=O)c2ccc3c(c2)OCCO3)c1
[out] 5.28

[in] Query: pIC50; subject: COc1ccc(SC#N)cc1OCC(=O)N(CCC#N)CCC#N
[out] 5.23

[in] Query: pIC50; subject: N#CSc1cc(SC#N)c(N)nc1N [PR-619, reference compound]
[out] 5.57

[in] Query: pIC50; subject: CCCCNC(=O)Nc1cccc(SC#N)c1
[out] 5.20

###

assayedSystem: Sirt1 (Homo sapiens, UniProt Q96EB6)
Construct: made in house; host or cells: E. coli BL21 Star (DE3)
Sequence (Q96EB6 134-747): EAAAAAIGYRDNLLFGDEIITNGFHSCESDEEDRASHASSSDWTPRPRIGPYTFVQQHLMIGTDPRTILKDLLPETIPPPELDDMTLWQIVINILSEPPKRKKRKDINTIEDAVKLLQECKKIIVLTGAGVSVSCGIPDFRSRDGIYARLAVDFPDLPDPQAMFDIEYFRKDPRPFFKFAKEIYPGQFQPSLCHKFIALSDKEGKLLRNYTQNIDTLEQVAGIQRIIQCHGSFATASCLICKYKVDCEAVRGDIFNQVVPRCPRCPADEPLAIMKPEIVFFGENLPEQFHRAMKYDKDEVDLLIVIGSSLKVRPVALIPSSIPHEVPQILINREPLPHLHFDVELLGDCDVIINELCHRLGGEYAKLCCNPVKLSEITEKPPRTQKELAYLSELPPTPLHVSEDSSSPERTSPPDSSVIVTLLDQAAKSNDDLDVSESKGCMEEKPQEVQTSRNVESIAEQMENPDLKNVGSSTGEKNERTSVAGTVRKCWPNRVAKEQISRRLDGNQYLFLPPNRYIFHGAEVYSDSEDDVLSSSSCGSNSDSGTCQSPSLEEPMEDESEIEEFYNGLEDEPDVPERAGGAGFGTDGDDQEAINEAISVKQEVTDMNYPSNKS
assayProcedure: Fluorescent thermal shift assay (FTSA), Sirt1
Assay type: binding
conditionInfo: inhibitor 100 μM; read-out: Thermal shift assay: Δ Tm of Sirt1
attributeMeasured: ΔTm at 100 µM (°C)
Give the value, in units of °C, as a plain number.

Sample records with ΔTm at 100 µM:
CCCCNC(=O)Nc1cccc(SC#N)c1 [S1th 11] : -8.1
N#CSc1cccc(NC(=O)[C@H]2CC=CC[C@H]2C(=O)O)c1 [S1th 10] : -5.9
N#CSc1cccc(NS(=O)(=O)c2ccc3c(c2)OCCO3)c1 [S1th 13] : -9.6

Now look at this entry.
[in] Under Sirt1 (Homo sapiens, UniProt Q96EB6): ΔTm at 100 µM value of COc1ccc(SC#N)cc1OCC(=O)N(CCC#N)CCC#N [S1th 12] ?
[out] -7.2

Recorded values, source paper PMC7203344.
